meta.source: patent US5116974A

Test system: aconitine arrhythmia in female Wistar rats
Assay type: in vivo, rat (female Wistar)
condition-context: rat, ratio of LD50 to ED73 (aconitine model)
readout-type: Q = LD50 i.v./ED73 i.v. (therapeutic breadth)

molecule | meas-value
CC(C)OC(=O)Nc1ccc2c(c1)N(C(=O)CNCCO)c1ccccc1CC2 [No. 12] | 39
CCNCC(=O)N1c2ccccc2CCc2ccc(NC(=O)OCC)cc21 [No. 3] | 107
CCOC(=O)Nc1ccc2c(c1)N(C(=O)CN)c1ccccc1CC2 [No. 10] | 70
CCOC(=O)Nc1ccc2c(c1)N(C(=O)CNC)c1ccccc1C=C2 [No. 19] | 34
CCCCCCNCC(=O)N1c2ccccc2CCc2ccc(NC(=O)OCC)cc21 [No. 9] | 16
CCOC(=O)Nc1ccc2c(c1)N(C(=O)CNC(C)(C)C)c1ccccc1CC2 [No. 6] | 16
CCOC(=O)Nc1ccc2c(c1)N(C(=O)CNCCO)c1ccccc1CC2 [No. 2] | 63
CCNCCC(=O)N1c2ccccc2CCc2ccc(NC(=O)OCC)cc21 [No. 21] | 29
CCCCNCC(=O)N1c2ccccc2CCc2ccc(NC(=O)OCC)cc21 [No. 7] | 17
CCOC(=O)Nc1ccc2c(c1)N(C(=O)CCNCCO)c1ccccc1CC2 [No. 18] | 24
CCNCC(=O)N1c2ccccc2CCc2ccc(NC(=O)OC)cc21 [No. 17] | 20
CCOC(=O)Nc1ccc2c(c1)N(C(=O)CCN1CCOCC1)c1ccccc1S2 [Morazicine, morazicine, reference compound] | 10
